Target or system: Fatty Acid Synthase Keto-reductase Domain (FASN KR) (Homo sapiens, UniProt P49327)
Hi there, I'd appreciate the recorded IC50 for every entry that follows.
Numbers only, in nM.

Structure smiles	IC50, nM
O=C(C1CC1)N1CC[C@@H](CN2C(=O)C3(CC3)N=C2c2ccc(-c3ccc4[nH]cc(CCO)c4c3)cc2)C1	49
Cc1cc(-c2ccc3occc3c2)ccc1C1=NC2(CC2)C(=O)N1C[C@@H]1CCN(C(=O)C2CC2)C1	69.2
Cc1cc(-c2ccc3c(c2)cc(C)n3C)ccc1C1=NC2(CC2)C(=O)N1CC1CN(C(=O)C2CC2)C1	1200

Could you now consider this next compound?
Incoming: Reported IC50, compound O=C(C1CC1)N1CC[C@@H](CN2C(=O)C3(CC3)N=C2c2ccc(-c3ccc4occc4c3)nc2)C1 : ____
Outgoing: 977

###

Target or system: hFASN enzyme (full length) (Homo sapiens, UniProt P49327)
Construct: 10 μL hFASN enzyme (full length, 300 ng, purified in house); made in house
Sequence (P49327 whole entry): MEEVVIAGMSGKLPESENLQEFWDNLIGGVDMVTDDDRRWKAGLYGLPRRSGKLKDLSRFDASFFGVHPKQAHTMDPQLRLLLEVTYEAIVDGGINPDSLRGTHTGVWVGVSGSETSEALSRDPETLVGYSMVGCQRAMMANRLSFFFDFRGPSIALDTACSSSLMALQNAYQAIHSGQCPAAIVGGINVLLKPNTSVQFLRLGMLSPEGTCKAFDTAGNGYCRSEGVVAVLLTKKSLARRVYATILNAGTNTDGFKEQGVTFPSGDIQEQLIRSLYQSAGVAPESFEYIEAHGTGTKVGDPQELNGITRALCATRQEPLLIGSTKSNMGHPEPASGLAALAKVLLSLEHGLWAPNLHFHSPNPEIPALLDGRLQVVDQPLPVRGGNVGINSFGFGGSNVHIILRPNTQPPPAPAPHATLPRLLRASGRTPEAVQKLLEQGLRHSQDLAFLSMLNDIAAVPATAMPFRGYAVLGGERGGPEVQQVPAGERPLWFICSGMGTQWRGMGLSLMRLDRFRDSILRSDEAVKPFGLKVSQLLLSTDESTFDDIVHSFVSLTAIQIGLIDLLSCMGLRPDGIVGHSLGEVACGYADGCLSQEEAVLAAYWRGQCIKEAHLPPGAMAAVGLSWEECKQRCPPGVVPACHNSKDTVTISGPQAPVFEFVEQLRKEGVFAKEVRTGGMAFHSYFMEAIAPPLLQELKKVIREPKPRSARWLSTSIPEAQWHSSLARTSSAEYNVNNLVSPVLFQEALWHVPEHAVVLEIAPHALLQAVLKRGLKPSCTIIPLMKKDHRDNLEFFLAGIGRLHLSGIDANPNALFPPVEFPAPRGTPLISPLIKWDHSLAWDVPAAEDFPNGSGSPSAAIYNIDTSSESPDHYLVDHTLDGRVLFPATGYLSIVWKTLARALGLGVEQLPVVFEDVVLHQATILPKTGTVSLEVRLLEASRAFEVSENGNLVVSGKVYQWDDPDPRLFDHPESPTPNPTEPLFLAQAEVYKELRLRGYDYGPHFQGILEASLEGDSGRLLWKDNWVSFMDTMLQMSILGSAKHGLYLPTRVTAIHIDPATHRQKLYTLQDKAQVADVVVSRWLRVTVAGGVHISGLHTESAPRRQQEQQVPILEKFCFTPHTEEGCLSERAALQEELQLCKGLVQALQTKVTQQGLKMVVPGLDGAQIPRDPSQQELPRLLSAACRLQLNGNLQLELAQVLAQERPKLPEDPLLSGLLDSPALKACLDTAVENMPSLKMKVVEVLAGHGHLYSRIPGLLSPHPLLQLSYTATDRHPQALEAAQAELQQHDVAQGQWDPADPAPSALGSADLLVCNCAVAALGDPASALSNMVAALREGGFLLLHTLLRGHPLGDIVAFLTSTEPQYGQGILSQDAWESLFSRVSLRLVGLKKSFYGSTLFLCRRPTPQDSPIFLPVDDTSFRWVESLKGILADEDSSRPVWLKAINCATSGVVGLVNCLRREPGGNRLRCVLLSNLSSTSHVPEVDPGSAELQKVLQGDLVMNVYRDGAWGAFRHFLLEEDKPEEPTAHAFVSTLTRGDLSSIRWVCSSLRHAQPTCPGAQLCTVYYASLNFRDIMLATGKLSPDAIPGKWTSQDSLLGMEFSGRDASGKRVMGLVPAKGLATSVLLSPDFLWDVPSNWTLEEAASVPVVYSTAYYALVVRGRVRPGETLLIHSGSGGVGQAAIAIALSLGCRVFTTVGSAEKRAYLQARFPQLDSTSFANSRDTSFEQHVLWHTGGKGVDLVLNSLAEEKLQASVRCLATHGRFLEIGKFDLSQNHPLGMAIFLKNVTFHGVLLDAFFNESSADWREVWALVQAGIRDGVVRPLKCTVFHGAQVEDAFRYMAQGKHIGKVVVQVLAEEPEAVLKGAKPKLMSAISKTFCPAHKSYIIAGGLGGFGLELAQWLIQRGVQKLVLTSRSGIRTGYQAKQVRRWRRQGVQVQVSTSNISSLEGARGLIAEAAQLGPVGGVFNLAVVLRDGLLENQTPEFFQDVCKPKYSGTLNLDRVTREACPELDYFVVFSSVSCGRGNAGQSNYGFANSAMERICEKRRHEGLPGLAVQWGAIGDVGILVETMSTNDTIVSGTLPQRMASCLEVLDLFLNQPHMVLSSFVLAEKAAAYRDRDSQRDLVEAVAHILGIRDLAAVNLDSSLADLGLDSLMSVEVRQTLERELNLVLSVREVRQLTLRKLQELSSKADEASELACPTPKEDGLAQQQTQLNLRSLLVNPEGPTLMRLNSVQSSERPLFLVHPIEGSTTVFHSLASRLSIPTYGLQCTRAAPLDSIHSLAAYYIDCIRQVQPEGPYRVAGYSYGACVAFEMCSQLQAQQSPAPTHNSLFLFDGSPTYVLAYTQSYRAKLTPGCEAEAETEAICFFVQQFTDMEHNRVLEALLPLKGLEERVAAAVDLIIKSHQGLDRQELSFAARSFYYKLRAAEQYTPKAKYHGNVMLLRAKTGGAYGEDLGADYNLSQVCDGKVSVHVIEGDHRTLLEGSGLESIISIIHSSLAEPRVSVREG
Experiment summary: Fatty Acid Synthase (FASN) inhibition scintillation proximity assay
Type: biochemical
Test context: read-out: Human FASN pIC50 (converted)
Method: In this assay, inhibition of FASN activity is measured using ^3H-acetyl-CoA and malonyl-CoA as substrates. ^3H-Acetyl CoA is converted to ^3H-palmitate through a series of reactions by the FASN protein, which contains 7 functional domains and carries out 7 enzymatic reactions to ultimately produce ^3H-palmitate. The assay principle is based upon the fact that ^3H-acetyl-CoA is hydrophilic and the end product, ^3H-palmitate is hydrophobic. […]
Assay endpoint: IC50 (nM)
Give bare numbers, in nM.

Past entries and their recorded results:
Compound	IC50, nM
Cc1cc(-c2ccc(-c3ccnn3C)cc2)ccc1C1=NC2(CC2)C(=O)N1C[C@@H]1CCN(C(=O)C2(C)CC2)C1	145
CC(O)C(=O)N1CC(CN2C(=O)C3(CCOC3)N=C2c2ccc(-c3ccc4cccnc4c3)cc2)C1 (stereo not shown)	724
N#Cc1cc2cc(-c3ccc(C4=NC5(CC5)C(=O)N4CC4CN(C(=O)C5CC5)C4)cc3F)ccc2o1	3090

Incoming: Reported IC50, compound O=C(C1CC1)N1CC(CN2C(=O)C3(CC3)N=C2c2ccc(-c3ccc(O)cc3)cc2)C1 : ____
Outgoing: 3470

###

Target or system: hFASN enzyme (full length) (Homo sapiens, UniProt P49327)
Construct: 10 μL hFASN enzyme (full length, 300 ng, purified in house); made in house
Experiment summary: Fatty Acid Synthase (FASN) inhibition scintillation proximity assay
Type: biochemical
Test context: read-out: Human FASN pIC50 (converted)
Please map values of IC50 to classes as shown: low = under 100 nM, mid = from 100 nM up to 300 nM, high = 300 nM and over

Compound	Assigned category
O=C([C@H]1CCCO1)N1CC[C@@H](CN2C(=O)C3(CCCC3)N=C2c2ccc(-c3ccc4occc4c3)cc2)C1	low
COc1ccc(-c2ccc(C3=NC4(CCCC4)C(=O)N3C[C@@H]3CCN(C(=O)C4CC4)C3)cc2)cc1	high
CC(C)c1ccc(-c2ccc(C3=NC4(CC4)C(=O)N3CC3CN(C(=O)C4CC4)C3)cc2)cn1	high
N#Cc1ccc2nc(-c3ccc(C4=NC5(CC5)C(=O)N4CC4CN(C(=O)C5CC5)C4)c(F)c3)sc2c1	low
O=C(C1CC1)N1CC(CN2C(=O)C3(CC3)N=C2c2ccc(-c3ccc(-n4ccnc4)nc3)cc2F)C1	high

Incoming: Dear colleague, I would appreciate it if you could identify the bin for CC(C)(O)c1ccc(-c2ccc(C3=NC4(CC4)C(=O)N3CC3CN(C(=O)C4CC4)C3)cc2)nc1 and reply at your convenience.
Outgoing: high

Incoming: Dear colleague, I would appreciate it if you could identify the bin for Cn1ncc2cc(-c3ccc(C4=NC5(CCOC5)C(=O)N4C[C@@H]4CCN(C(=O)N5CCCC5)C4)cc3)ccc21 (some centres unmarked) and reply at your convenience.
Outgoing: high

Incoming: Dear colleague, I would appreciate it if you could identify the bin for N#Cc1ccc2sc(-c3ccc(C4=NC5(CC5)C(=O)N4CC4CN(C(=O)C5CC5)C4)c(F)c3)nc2c1 and reply at your convenience.
Outgoing: mid

Incoming: Dear colleague, I would appreciate it if you could identify the bin for Cc1cc(-c2ccc3c(cnn3C)c2)ccc1C1=NC2(CC2)C(=O)N1CC1CN(C(=O)N(C)C)C1 and reply at your convenience.
Outgoing: mid

Incoming: Dear colleague, I would appreciate it if you could identify the bin for COC(=O)N1CC2(C1)N=C(c1ccc(-c3ccc4cccnc4c3)cc1)N(C[C@@H]1CCN(C(=O)c3nccs3)C1)C2=O and reply at your convenience.
Outgoing: high

Incoming: Dear colleague, I would appreciate it if you could identify the bin for O=C(C1CC1)N1CC(CN2C(=O)C3(CC3)N=C2c2ccc(-c3ccc4cncnc4c3)cc2)C1 and reply at your convenience.
Outgoing: mid

###

Target or system: hFASN enzyme (full length) (Homo sapiens)
Construct: 10 μL hFASN enzyme (full length, 300 ng, purified in house); made in house
Experiment summary: Fatty Acid Synthase (FASN) inhibition scintillation proximity assay
Assay type: biochemical
Test context: read-out: Human FASN % inhibition @ 10 μM, 10 μM test compound
Hi there, I'd appreciate the recorded inhibition at 10 µM for every entry that follows.

Past entries and their recorded results:
Structure smiles	inhibition at 10 µM
Cn1cc(-c2ccc(-c3ccc(C4=NC5(CC5)C(=O)N4C[C@@H]4CCN(C(=O)C5(C)CC5)C4)c(F)c3)cc2)cn1	89%
COC(=O)N1CC2(C1)N=C(c1ccc(-c3ccc4occc4c3)cc1)N(C[C@@H]1CCN(C(=O)[C@H]3CCCO3)C1)C2=O	97%

Batch request: inhibition at 10 µM per item, same order as input.
1. O=C(C1CC1)N1CC(CN2C(=O)C3(CC3)N=C2c2ccc(-c3ccc(-c4cccnc4)cc3)cc2)C1
2. Cc1cc(C2=NC3(CC3)C(=O)N2CC2CN(C(=O)C3CC3)C2)ccc1-c1ccc2occc2c1
3. O=C(c1nccs1)N1CC(CN2C(=O)C3(CCOCC3)N=C2c2ccc(-c3ccc4occc4c3)cc2)C1

Outgoing:
1. 99.4%
2. 62%
3. -4%

Batch request: inhibition at 10 µM per item, same order as input.
1. O=C(C1CC1)N1CCC(CN2C(=O)C3(CC3)N=C2c2ccc(-c3ccc4ccncc4c3)cc2)CC1
2. CN1CCN(c2cc(-c3ccc(C4=NC5(CCCC5)C(=O)N4C[C@@H]4CCN(C(=O)C5CC5)C4)cc3)ccn2)CC1

Outgoing:
["64.4%", "7%"]

###

Target or system: hFASN enzyme (full length) (Homo sapiens, UniProt P49327)
Construct: 10 μL hFASN enzyme (full length, 300 ng, purified in house); made in house
Experiment summary: Fatty Acid Synthase (FASN) inhibition scintillation proximity assay
Type: biochemical
Test context: read-out: Human FASN % inhibition @ 10 μM, 10 μM test compound
# if value of inhibition at 10 µM reaches 90%, tag Satisfied; if it stays below, tag Not satisfied

Please review the following examples before continuing.
Compound	Assigned category
CN(C)CC(=O)N1CCC2(CC1)N=C(c1ccc(-c3ccc4cnccc4c3)cc1)N(C[C@@H]1CCN(C(=O)C3CC3)C1)C2=O [compound 142]	Satisfied
CC(C)n1cc(-c2ccc(-c3ccc(C4=NC5(CC5)C(=O)N4CC4CN(C(=O)C5CC5)C4)cc3)cc2)cn1 [compound 331]	Satisfied
O=C(C1CC1)N1CC(CN2C(=O)C3(CC3)N=C2c2ccc(-c3ccc4nccnc4c3)cc2)C1 [compound 481]	Not satisfied
O=C(C1CC1)N1CC[C@@H](CN2C(=O)C3(CCCC3)N=C2c2ccc(-c3ccc4cnccc4c3)cc2)C1 [compound 12]	Satisfied
O=C(C1CC1)N1CCC[C@H](CN2C(=O)C3(CC3)N=C2c2ccc(-c3ccc(-c4cccc(Cl)c4)cc3)cc2)C1 [compound 813]	Not satisfied
CS(=O)(=O)N1CCC2(CC1)N=C(c1ccc(-c3ccc4occc4c3)cc1)N(C[C@@H]1CCN(C(=O)C3CC3)C1)C2=O [compound 746]	Satisfied
Cn1ncc2ccc(-c3ccc(C4=NC5(CCCC5)C(=O)N4C[C@@H]4CCN(C(=O)C5CC5)C4)cc3)cc21 [compound 34]	Satisfied
CC(C)C(=O)N1CCC2(CC1)N=C(c1ccc(-c3ccc4occc4c3)cc1)N(C[C@@H]1CCN(C(=O)C3CC3)C1)C2=O [compound 151]	Satisfied

Incoming: Tell me whether inhibition at 10 µM is at least 90% here: Cn1ncc2cc(-c3ccc(C4=NC5(CCN(CCO)CC5)C(=O)N4C[C@@H]4CCN(C(=O)C5CC5)C4)cc3)ccc21 [compound 127]
Outgoing: Satisfied

Incoming: Tell me whether inhibition at 10 µM is at least 90% here: Cn1ncc2cc(-c3ccc(C4=NC5(CCOCC5)C(=O)N4CC4CN(C(=O)C(F)(F)F)C4)cc3)ccc21 [compound 935]
Outgoing: Not satisfied

Incoming: Tell me whether inhibition at 10 µM is at least 90% here: Cc1sc2ccc(-c3ccc(C4=NC5(CC5)C(=O)N4CC4CN(C(=O)C5CC5)C4)cc3)cc2c1C [compound 418]
Outgoing: Satisfied

Incoming: Tell me whether inhibition at 10 µM is at least 90% here: Cc1cc(-c2ccc3c(cnn3C)c2)ccc1C1=NC2(CC2)C(=O)N1CC1CN(C(=O)C2(O)CCC2)C1 [compound 796]
Outgoing: Not satisfied

Incoming: Tell me whether inhibition at 10 µM is at least 90% here: Cc1cc(-c2ccc3occc3c2)ccc1C1=NC2(CC2)C(=O)N1CC1CN(C(=O)C2CC2)C1 [compound 287]
Outgoing: Satisfied
